Biological target: IL17-RE-IL-17C (Homo sapiens, UniProt Q8NFR9+Q9P0M4)
Sequence (Q9P0M4 whole entry): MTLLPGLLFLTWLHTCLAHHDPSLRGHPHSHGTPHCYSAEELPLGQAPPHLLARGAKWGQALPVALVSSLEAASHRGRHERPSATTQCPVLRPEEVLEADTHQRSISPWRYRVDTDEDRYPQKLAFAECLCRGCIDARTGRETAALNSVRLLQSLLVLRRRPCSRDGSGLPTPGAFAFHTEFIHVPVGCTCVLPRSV
Sequence (Q8NFR9 whole entry): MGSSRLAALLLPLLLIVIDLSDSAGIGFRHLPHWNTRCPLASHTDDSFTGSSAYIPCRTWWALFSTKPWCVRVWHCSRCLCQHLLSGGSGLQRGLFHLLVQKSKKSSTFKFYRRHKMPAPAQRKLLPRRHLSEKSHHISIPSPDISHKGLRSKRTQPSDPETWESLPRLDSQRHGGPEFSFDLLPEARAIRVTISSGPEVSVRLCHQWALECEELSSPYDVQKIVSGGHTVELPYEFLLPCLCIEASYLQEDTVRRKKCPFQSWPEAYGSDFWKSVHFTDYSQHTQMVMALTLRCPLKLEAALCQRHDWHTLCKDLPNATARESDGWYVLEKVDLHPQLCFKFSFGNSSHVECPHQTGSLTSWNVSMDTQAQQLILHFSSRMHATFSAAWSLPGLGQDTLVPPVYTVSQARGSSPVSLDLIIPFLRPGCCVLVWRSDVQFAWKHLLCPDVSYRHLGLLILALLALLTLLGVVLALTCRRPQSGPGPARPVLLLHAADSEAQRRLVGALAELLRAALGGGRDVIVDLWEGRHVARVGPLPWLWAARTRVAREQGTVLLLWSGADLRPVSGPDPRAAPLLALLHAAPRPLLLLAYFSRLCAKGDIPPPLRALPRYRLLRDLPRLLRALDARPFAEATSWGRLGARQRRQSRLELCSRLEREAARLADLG
Assay: Inhibition of interleukin-17RE/biotinylated IL-17C protein-protein interaction (unknown origin) incubated for 1 hrs by competitive ELISA
Bridge positions count the residues as written; N and C are the ends. Peptide text beside a SMILES is read from it.
Measurement kind: IC50

Example results:
CC[C@H](C)[C@@H]1NC(=O)[C@H](CCCNC(=N)N)NC(=O)[C@H](Cc2ccc(O)cc2)NC(=O)[C@H](Cc2ccc(O)cc2)NC(=O)[C@H](CCCNC(=N)N)NC(=O)[C@H](Cc2c[nH]cn2)NC(=O)[C@H](Cc2ccc(O)cc2)NC(=O)CSC[C@@H](C(=O)NCC(N)=O)NC(=O)CNC(=O)[C@H](CC(C)C)NC(=O)[C@H](CCC(=O)O)NC(=O)CNC(=O)[C@H](Cc2ccc(O)cc2)NC(=O)[C@H](CC(C)C)NC1=O ({CH2CO}-YHRYYRILYGELGCG-NH2; thioether N-14) :: 108 nM
CC[C@H](C)[C@@H]1NC(=O)[C@H](CCCNC(=N)N)NC(=O)[C@H](Cc2ccc(O)cc2)NC(=O)[C@H](Cc2ccc(O)cc2)NC(=O)[C@H](CCCCN)NC(=O)[C@H](Cc2c[nH]cn2)NC(=O)[C@H](Cc2ccc(O)cc2)NC(=O)CSC[C@@H](C(=O)NCC(N)=O)NC(=O)CNC(=O)[C@H](CC(C)C)NC(=O)[C@H](CCC(=O)O)NC(=O)CNC(=O)[C@H](Cc2ccc(O)cc2)NC(=O)[C@H](CC(C)C)NC1=O ({CH2CO}-YHKYYRILYGELGCG-NH2; thioether N-14) :: 89 nM
CC(C)C[C@@H]1NC(=O)[C@H](CC(=O)O)NC(=O)CNC(=O)[C@H](Cc2ccc(O)cc2)NC(=O)[C@H](CC(C)C)NC(=O)[C@H](CO)NC(=O)[C@H](CCCNC(=N)N)NC(=O)[C@H](Cc2c[nH]cn2)NC(=O)[C@H](Cc2ccc(O)cc2)NC(=O)[C@H](Cc2c[nH]cn2)NC(=O)[C@H](Cc2c[nH]cn2)NC(=O)[C@H](Cc2ccc(O)cc2)NC(=O)CSC[C@@H](C(=O)NCC(N)=O)NC(=O)CNC1=O ({CH2CO}-YHHYHRSLYGDLGCG-NH2; thioether N-14) :: > 30000 nM
CC[C@H](C)[C@@H]1NC(=O)[C@H](CCCNC(=N)N)NC(=O)[C@H](Cc2ccc(O)cc2)NC(=O)[C@H](Cc2ccc(O)cc2)NC(=O)[C@H](CCC(N)=O)NC(=O)[C@H](Cc2c[nH]cn2)NC(=O)[C@H](Cc2ccc(O)cc2)NC(=O)CSC[C@@H](C(=O)NCC(N)=O)NC(=O)CNC(=O)[C@H](CC(C)C)NC(=O)[C@H](CCC(=O)O)NC(=O)CNC(=O)[C@H](Cc2ccc(O)cc2)NC(=O)[C@H](CC(C)C)NC1=O ({CH2CO}-YHQYYRILYGELGCG-NH2; thioether N-14) :: 15 nM

Shift focus to the following entry.
[Q] Please look up its IC50: CC[C@H](C)[C@@H]1NC(=O)[C@H](CCCNC(=N)N)NC(=O)[C@H](Cc2ccc(O)cc2)NC(=O)[C@H](Cc2ccc(O)cc2)NC(=O)[C@H](CCC(=O)O)NC(=O)[C@H](Cc2c[nH]cn2)NC(=O)[C@H](Cc2ccc(O)cc2)NC(=O)CSC[C@@H](C(=O)NCC(N)=O)NC(=O)CNC(=O)[C@H](CC(C)C)NC(=O)[C@H](CCC(=O)O)NC(=O)CNC(=O)[C@H](Cc2ccc(O)cc2)NC(=O)[C@H](CC(C)C)NC1=O ({CH2CO}-YHEYYRILYGELGCG-NH2; thioether N-14)
[A] 86 nM
